# Test system: BxPC-3 cells
# method: IC50 concentration in BxPC-3 cells
# Format: cell-based
measured-attribute: IC50 (µM)
Numbers only; they are read as µM.

Give its IC50 value. Item: N.N.[Cl][Pt][Cl] [CIS, cisplatin] 6.9

====

# Tested on: PANC-1
# method: IC50 concentration by MTT colorimetric assay
# Assay type: cell-based, human
# conditions-used: PANC-1; no unit printed at b274
measured-attribute: IC50 (µM)
Numbers only; they are read as µM.

Give its IC50 value. Item: N.N.[Cl][Pt][Cl] [CIS, cisplatin] 14
